# STUDY_SYSTEM: Savinase® 16.0L (Lederbergia lenta)
# Construct: purchased Sigma-Aldrich
# Sequence (P29600 1-269): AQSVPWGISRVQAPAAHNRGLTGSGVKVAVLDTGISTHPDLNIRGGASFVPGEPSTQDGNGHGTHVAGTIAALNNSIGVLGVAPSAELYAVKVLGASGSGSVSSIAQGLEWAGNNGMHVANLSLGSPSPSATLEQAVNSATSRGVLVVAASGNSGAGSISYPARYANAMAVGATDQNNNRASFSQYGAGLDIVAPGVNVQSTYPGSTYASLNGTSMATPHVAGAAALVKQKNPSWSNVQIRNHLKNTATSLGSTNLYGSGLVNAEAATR
# METHOD_NOTES: Protease storage stability in liquid formulations at 37° C. (Suc-AAPF-pNA assay)
# Assay type: biochemical
# EXPERIMENTAL_CONTEXT: base formulation III, 2.0 wt% compound, 0.7 wt% Savinase 16.0 L; 14 d
Measured protease activity in the course of time of storage at 37° C. accompanies every entry in the list below.
Respond with the bare value in %.

INSERT INTO results (compound, unit_of_measurement, observed_measurement) VALUES
  ('CCCOC(=O)CC(O)(CC(=O)OCCC)C(=O)OCCC [A.2, Tripropylcitrate]', '%', 96),
  ('CCOC(=O)C(=O)OCC [B.3, diethyloxalate, reference compound]', '%', 74),
  ('O=C(O)CC(O)(CC(=O)O)C(=O)O [B.1, citric acid, reference compound]', '%', 75),
  ('CCOC(=O)CC(O)(CC(=O)O)C(=O)O (stereo not drawn) [A.6, Monoethylcitrate]', '%', 86),
  ('CCOC(=O)CC(O)(CC(=O)OCC)C(=O)OCC [A.1, Triethylcitrate]', '%', 91);

Now turn to the next compound.
For the compound CCOC(=O)CC(CC(=O)OCC)(OC(C)=O)C(=O)OCC [A.5, Acetyltriethylcitrate] , give its measured protease activity in the course of time of storage at 37° C. value. 91

All values here come from patent US20210395650A1.
